The reported numbers originate from paper PMC3722118.

# Test system: Hs683 glioma cells
# RUN_DESCRIPTION: MTT colorimetric in vitro growth inhibition assay
# Type: cell-based, human
# CONDITION_LABEL: Homo sapiens, Hs 683, 72 h, read-out: IC50 (nM) Hs683
Could you please report measured IC50 for the items listed next?
# unit: nM | format: bare number

// query IC50 value for entry C[C@H]1O[C@@H](O[C@H]2[C@@H](O)C[C@H](O[C@H]3[C@@H](O)C[C@H](O[C@H]4CC[C@@]5(C)[C@H](CC[C@@H]6[C@@H]5CC[C@]5(C)[C@@H](C7=CC(=O)OC7)[C@@H](O)C[C@]65O)C4)O[C@@H]3C)O[C@@H]2C)C[C@H](O)[C@@H]1O
79

// query IC50 value for entry C[C@]12CC[C@H](O)C[C@H]1CC[C@@H]1[C@@H]2[C@H](O)C[C@]2(C)[C@@H](c3ccc(=O)oc3)CC[C@]12O
14

// query IC50 value for entry C[C@@H]1O[C@@H](O[C@H]2CC[C@@]3(C)[C@H](CC[C@@H]4[C@@H]3[C@H](O)C[C@]3(C)[C@@H](c5ccc(=O)oc5)CC[C@]43O)C2)[C@H](O)[C@H](O)[C@H]1O [Gamabufotalin-rhamnoside]
4

// query IC50 value for entry C[C@@H]1O[C@@H](O[C@H]2CC[C@]3(C=O)[C@H]4CC[C@]5(C)[C@@H](c6ccc(=O)oc6)CC[C@]5(O)[C@@H]4CC[C@]3(O)C2)[C@H](O)[C@H](O)[C@H]1O[C@@H]1O[C@H](CO)[C@@H](O)[C@H](O)[C@H]1O
7

// query IC50 value for entry C[C@]12CC[C@H](O)C[C@H]1CC[C@@H]1[C@@H]2CC[C@]2(C)[C@@H](C3=CC(=O)OC3)CC[C@]12O
79

---

# Test system: NHDF fibroblasts
# RUN_DESCRIPTION: MTT growth inhibition in non-cancerous control cell line
# Type: cell-based
# CONDITION_LABEL: normal human fibroblasts, read-out: in vitro growth inhibitory effects (IC50) in NHDF fibroblasts
READOUT: IC50

// query IC50 value for entry C[C@]12CC[C@H]3[C@@H](CC[C@]4(O)C[C@@H](O)CC[C@]34C=O)[C@@]1(O)CC[C@@H]2c1ccc(=O)oc1
> 10 µM

---

# TARGET: human α3β1 NaK complex (Homo sapiens)
# Construct: made in house; host or cells: Pichia pastoris strain SMD1165 (membranes)
# RUN_DESCRIPTION: 3H-ouabain competitive displacement on P. pastoris membranes
# Assay type: binding
# CONDITION_LABEL: 3H-ouabain displacement, three independent experiments; read-out: Affinity (nM) α-3 (KD ± SEM)
READOUT: Kd
Form entry: enter the amount, then its unit.

// query Kd value for entry C[C@]12CC[C@H](O)C[C@H]1CC[C@@H]1[C@@H]2[C@H](O)C[C@]2(C)[C@@H](c3ccc(=O)oc3)CC[C@]12O
236 nM

// query Kd value for entry C[C@@H]1O[C@@H](O[C@H]2CC[C@]3(C=O)[C@H]4CC[C@]5(C)[C@@H](c6ccc(=O)oc6)CC[C@]5(O)[C@@H]4CC[C@]3(O)C2)[C@H](O)[C@H](O)[C@H]1O[C@@H]1O[C@H](CO)[C@@H](O)[C@H](O)[C@H]1O
175 nM

// query Kd value for entry C[C@]12CC[C@H]3[C@@H](CC[C@]4(O)C[C@@H](O)CC[C@]34C=O)[C@@]1(O)CC[C@@H]2c1ccc(=O)oc1
191 nM

// query Kd value for entry C[C@@H]1O[C@@H](O[C@H]2CC[C@@]3(C)[C@H](CC[C@@H]4[C@@H]3[C@H](O)C[C@]3(C)[C@@H](c5ccc(=O)oc5)CC[C@]43O)C2)[C@H](O)[C@H](O)[C@H]1O [Gamabufotalin-rhamnoside]
17 nM

---

# TARGET: human α2β1 NaK complex (Homo sapiens, UniProt P50993)
# Construct: made in house; host or cells: Pichia pastoris strain SMD1165 (membranes)
# RUN_DESCRIPTION: 3H-ouabain competitive displacement on P. pastoris membranes
# Type: binding
# CONDITION_LABEL: 3H-ouabain displacement, three independent experiments; read-out: Affinity (nM) α-2 (KD ± SEM)
READOUT: Kd (nM)
# unit: nM | format: bare number

// query Kd value for entry C[C@@H]1O[C@@H](O[C@H]2CC[C@@]3(C)[C@H](CC[C@@H]4[C@@H]3[C@H](O)C[C@]3(C)[C@@H](c5ccc(=O)oc5)CC[C@]43O)C2)[C@H](O)[C@H](O)[C@H]1O [Gamabufotalin-rhamnoside]
36

// query Kd value for entry C[C@]12CC[C@H](O)C[C@H]1CC[C@@H]1[C@@H]2[C@H](O)C[C@]2(C)[C@@H](c3ccc(=O)oc3)CC[C@]12O
247

// query Kd value for entry C[C@]12CC[C@H]3[C@@H](CC[C@]4(O)C[C@@H](O)CC[C@]34C=O)[C@@]1(O)CC[C@@H]2c1ccc(=O)oc1
198

// query Kd value for entry C[C@@H]1O[C@@H](O[C@H]2CC[C@]3(C=O)[C@H]4CC[C@]5(C)[C@@H](c6ccc(=O)oc6)CC[C@]5(O)[C@@H]4CC[C@]3(O)C2)[C@H](O)[C@H](O)[C@H]1O[C@@H]1O[C@H](CO)[C@@H](O)[C@H](O)[C@H]1O
218

---

Could you please report measured IC50 for the items listed next?
# Test system: A549 NSCLC cells
# RUN_DESCRIPTION: MTT colorimetric in vitro growth inhibition assay
# Format: cell-based, human
# CONDITION_LABEL: Homo sapiens, A549, 72 h, read-out: IC50 (nM) A549
# unit: nM | format: bare number

// query IC50 value for entry C[C@@H]1O[C@@H](O[C@H]2CC[C@@]3(C)[C@H](CC[C@@H]4[C@@H]3[C@H](O)C[C@]3(C)[C@@H](c5ccc(=O)oc5)CC[C@]43O)C2)[C@H](O)[C@H](O)[C@H]1O [Gamabufotalin-rhamnoside]
3

// query IC50 value for entry C[C@H]1O[C@@H](O[C@H]2[C@@H](O)C[C@H](O[C@H]3[C@@H](O)C[C@H](O[C@H]4CC[C@@]5(C)[C@H](CC[C@@H]6[C@@H]5CC[C@]5(C)[C@@H](C7=CC(=O)OC7)[C@@H](O)C[C@]65O)C4)O[C@@H]3C)O[C@@H]2C)C[C@H](O)[C@@H]1O [Gitoxin]
68

// query IC50 value for entry C[C@]12CC[C@H](O)C[C@H]1CC[C@@H]1[C@@H]2[C@H](O)C[C@]2(C)[C@@H](c3ccc(=O)oc3)CC[C@]12O [Gamabufotalin, gamabufotalin]
7

// query IC50 value for entry C[C@@H]1O[C@@H](O[C@H]2CC[C@]3(C=O)[C@H]4CC[C@]5(C)[C@@H](c6ccc(=O)oc6)CC[C@]5(O)[C@@H]4CC[C@]3(O)C2)[C@H](O)[C@H](O)[C@H]1O[C@@H]1O[C@H](CO)[C@@H](O)[C@H](O)[C@H]1O [Hellebrin]
6

// query IC50 value for entry C[C@]12CC[C@H](O)C[C@H]1CC[C@@H]1[C@@H]2CC[C@]2(C)[C@@H](C3=CC(=O)OC3)CC[C@]12O [Digitoxigenin]
92

---

# System: A549 NSCLC cells
# RUN_DESCRIPTION: MTT colorimetric in vitro growth inhibition assay
# Assay type: cell-based, human
# CONDITION_LABEL: three days of culture; * three independent experiments, ** one experiment, six replicates; read-out: IC50 (nM) A549
Could you please report measured IC50 for the items listed next?
Form entry: enter the amount, then its unit.

// query IC50 value for entry C[C@]12C[C@@H](O)[C@H]3[C@@H](CC[C@]4(O)C[C@@H](O)C[C@@H](O)[C@]34CO)[C@@]1(O)CC[C@@H]2C1=CC(=O)OC1
866 nM

// query IC50 value for entry C[C@]12CC[C@H]3[C@@H](CC[C@]4(O)C[C@@H](O)CC[C@]34C=O)[C@@]1(O)CC[C@@H]2c1ccc(=O)oc1
3 nM

// query IC50 value for entry C[C@]12CC[C@H](O)C[C@@H]1CC[C@@H]1[C@@H]2CC[C@]2(C)[C@@H](C3=CC(=O)OC3)CC[C@]12O
3170 nM

---

# TARGET: purified human α1β1 Na+/K+-ATPase (Homo sapiens)
# Construct: made in house; host or cells: Pichia pastoris strain SMD1165; detergent-soluble complex purified
# RUN_DESCRIPTION: Inhibition of NaK activity of purified detergent-soluble complex (Pi release)
# Assay type: biochemical
# CONDITION_LABEL: 37°C, 1 h, 1 mM ATP; read-out: Ki for inhibition of NaK activity of purified human α1β1
READOUT: pKi
Expect pKi as a plain number equal to -log10 of the molar concentration.

// query pKi value for entry C[C@]12C[C@@H](O)[C@H]3[C@@H](CC[C@]4(O)C[C@@H](O)C[C@@H](O)[C@]34CO)[C@@]1(O)CC[C@@H]2C1=CC(=O)OC1
6.14

// query pKi value for entry C[C@]12CC[C@H]3[C@@H](CC[C@]4(O)C[C@@H](O)CC[C@]34C=O)[C@@]1(O)CC[C@@H]2c1ccc(=O)oc1
7.34
